# assay_comment: Measurement of concentrations of human 17βHSD type 5 inhibitor compounds in mouse tissues (plasma, prostate) after oral administration
# Format: in vivo
# condition_parameters: prostate, male ICR mice, oral single dose 100 mg/kg, 2 hours after administration, read-out: Conc (prostate)
Tag: satisfied if measured concentration at 2 h is not below 10 µM, not satisfied if it is.

Quick check: does COc1cccc2c1c(C(=O)O)cn2S(=O)(=O)c1ccccc1 have concentration at 2 h greater than or equal to 10 µM?
satisfied

Quick check: does O=C(O)c1cn(S(=O)(=O)c2ccccc2)c2ccccc12 have concentration at 2 h greater than or equal to 10 µM?
satisfied

Quick check: does O=C(O)c1cn(S(=O)(=O)c2ccc(Br)cc2)c2c(Cl)cccc12 have concentration at 2 h greater than or equal to 10 µM?
not satisfied

Quick check: does O=C(O)c1cn(S(=O)(=O)c2ccc(Br)cc2)c2ccccc12 have concentration at 2 h greater than or equal to 10 µM?
not satisfied

Quick check: does O=C(O)c1cn(S(=O)(=O)c2ccccc2)c2ccc(F)cc12 have concentration at 2 h greater than or equal to 10 µM?
not satisfied

Quick check: does O=C(O)c1cn(S(=O)(=O)c2ccccc2)c2c(F)cccc12 have concentration at 2 h greater than or equal to 10 µM?
satisfied

Quick check: does Cc1ccc2c(c1)c(C(=O)O)cn2S(=O)(=O)c1ccccc1 have concentration at 2 h greater than or equal to 10 µM?
satisfied

---

# measured_target: human 17βHSD type 3 (Homo sapiens, UniProt P37058)
# Construct: A full-length cDNA encoding human 17βHSD type 3 used in the pharmacological test; supernatant of disrupted cells, not purified)
# Sequence (P37058 whole entry): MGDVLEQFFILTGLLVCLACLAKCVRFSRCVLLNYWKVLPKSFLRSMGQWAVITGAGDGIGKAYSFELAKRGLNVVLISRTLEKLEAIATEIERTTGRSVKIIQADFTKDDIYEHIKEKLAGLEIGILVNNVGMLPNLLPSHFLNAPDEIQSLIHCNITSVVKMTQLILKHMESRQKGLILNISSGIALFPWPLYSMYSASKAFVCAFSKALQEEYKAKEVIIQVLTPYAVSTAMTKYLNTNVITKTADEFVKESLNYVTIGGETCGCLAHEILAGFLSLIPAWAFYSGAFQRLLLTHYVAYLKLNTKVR
# assay_comment: Measurement of enzyme activity of human 17βHSD type 3 (testosterone production from androstenedione, DELFIA)
# condition_parameters: human 17βHSD type 3 (293 cell supernatant as enzyme source)
pIC50: −log10 of the molar value.
quantity_kind: pIC50

Identify the reported pIC50 for the following entry. O=C(O)c1cn(S(=O)(=O)c2ccccc2)c2ccc(F)cc12
5.05

Identify the reported pIC50 for the following entry. CCc1cccc2c(C(=O)O)cn(S(=O)(=O)c3ccccc3)c12
< 5.00

Identify the reported pIC50 for the following entry. O=C(O)c1cn(S(=O)(=O)c2ccccc2)c2ccc(Cl)cc12
< 5.00

Identify the reported pIC50 for the following entry. Cc1cc(Br)ccc1S(=O)(=O)n1cc(C(=O)O)c2cccc(Cl)c21
5.21

Identify the reported pIC50 for the following entry. O=C(O)c1cn(S(=O)(=O)c2ccc(Br)cc2)c2c1CCCC2
< 5.00

Identify the reported pIC50 for the following entry. CC(C)c1ccc(S(=O)(=O)n2cc(C(=O)O)c3cccc(Cl)c32)cc1
< 5.00

---

# measured_target: human 17βHSD type 5 (Homo sapiens, UniProt P42330)
# Construct: A full-length cDNA encoding human 17βHSD type 5 used in the pharmacological test
# assay_comment: Measurement of enzyme activity of human 17βHSD type 5 (testosterone production from androstenedione, DELFIA)
# condition_parameters: purified human 17βHSD type 5, androstenedione 300 nM, NADPH 200 μM, pH 6.0, room temperature 2 hours
quantity_kind: pIC50
On this scale, pIC50 is minus log10 of a concentration expressed in M (mol/L).

Identify the reported pIC50 for the following entry. COc1cccc2c1c(C(=O)O)cn2S(=O)(=O)c1ccccc1
5.26

Identify the reported pIC50 for the following entry. COc1ccc(S(=O)(=O)n2cc(C(=O)O)c3ccccc32)cc1
5.51

Identify the reported pIC50 for the following entry. CC(C)c1ccc(S(=O)(=O)n2cc(C(=O)O)c3cccc(Cl)c32)cc1
6.89

Identify the reported pIC50 for the following entry. O=C(O)c1cn(S(=O)(=O)c2ccccc2)c2ccc(F)cc12
6.92

Identify the reported pIC50 for the following entry. Cc1cc(Br)ccc1S(=O)(=O)n1cc(C(=O)O)c2cccc(Cl)c21
6.72

---

# measured_target: human 17βHSD type 5 (Homo sapiens, UniProt P42330)
# Construct: A full-length cDNA encoding human 17βHSD type 5 used in the pharmacological test
# Sequence (P42330 1-323): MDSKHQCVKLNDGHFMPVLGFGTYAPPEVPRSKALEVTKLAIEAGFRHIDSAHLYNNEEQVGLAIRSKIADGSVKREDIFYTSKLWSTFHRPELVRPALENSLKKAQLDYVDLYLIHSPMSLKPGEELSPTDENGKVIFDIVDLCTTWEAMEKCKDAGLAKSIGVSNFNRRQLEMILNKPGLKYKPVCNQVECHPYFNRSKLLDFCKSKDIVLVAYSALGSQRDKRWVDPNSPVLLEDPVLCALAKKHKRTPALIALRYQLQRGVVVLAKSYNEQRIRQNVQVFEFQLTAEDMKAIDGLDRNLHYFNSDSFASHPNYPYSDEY
# assay_comment: Measurement of enzyme activity of human 17βHSD type 5 (testosterone production from androstenedione, DELFIA)
# condition_parameters: purified human 17βHSD type 5, androstenedione 300 nM, NADPH 200 μM, pH 6.0, room temperature 2 hours
What IC50 was measured for each of the following?
Give the number; nM is assumed, so skip it.

Identify the reported IC50 for the following entry. O=C(O)c1cn(S(=O)(=O)c2ccc(Br)cc2)c2c(Cl)cccc12 [Example 192]
69

Identify the reported IC50 for the following entry. Cc1ccc(S(=O)(=O)n2cc(C(=O)O)c3ccccc32)cc1 [Example 138]
330

Identify the reported IC50 for the following entry. O=C(O)c1cn(S(=O)(=O)c2ccccc2)c2ccc(Cl)cc12 [Example 190]
690

---

What concentration at 2 h was measured for each of the following?
# assay_comment: Measurement of concentrations of human 17βHSD type 5 inhibitor compounds in mouse tissues (plasma, prostate) after oral administration
# Assay type: in vivo
# condition_parameters: plasma, male ICR mice, oral single dose 100 mg/kg, 2 hours after administration, read-out: Conc (plasma)
Give the number; µM is assumed, so skip it.

Identify the reported concentration at 2 h for the following entry. COc1cccc2c1c(C(=O)O)cn2S(=O)(=O)c1ccccc1
88.4

Identify the reported concentration at 2 h for the following entry. O=C(O)c1cn(S(=O)(=O)c2ccccc2)c2c(F)cccc12
69.7

Identify the reported concentration at 2 h for the following entry. Cc1ccc2c(c1)c(C(=O)O)cn2S(=O)(=O)c1ccccc1
88.8

Identify the reported concentration at 2 h for the following entry. O=C(O)c1cn(S(=O)(=O)c2ccc(Br)cc2)c2c(Cl)cccc12
57.3

Identify the reported concentration at 2 h for the following entry. O=C(O)c1cn(S(=O)(=O)c2ccccc2)c2ccc(F)cc12
83.8

Identify the reported concentration at 2 h for the following entry. O=C(O)c1cn(S(=O)(=O)c2ccc(Br)cc2)c2ccccc12
38.5

Identify the reported concentration at 2 h for the following entry. O=C(O)c1cn(S(=O)(=O)c2ccccc2)c2ccccc12
57.4

---

# assay_comment: Measurement of concentrations of human 17βHSD type 5 inhibitor compounds in mouse tissues (plasma, prostate) after oral administration
# Type: in vivo
# condition_parameters: plasma, male ICR mice, oral single dose 300 mg/kg, 2 hours after administration, read-out: Conc (plasma)
What concentration at 2 h was measured for each of the following?
Remember to put the unit after the number in your answer.

Identify the reported concentration at 2 h for the following entry. O=C(O)c1cn(S(=O)(=O)c2ccc(Br)cc2)c2c(Cl)cccc12 [Example 192]
126 µM

Identify the reported concentration at 2 h for the following entry. O=C(O)c1cn(S(=O)(=O)c2ccccc2)c2ccc(Cl)cc12 [Example 190]
226 µM

Identify the reported concentration at 2 h for the following entry. O=C(O)c1cn(S(=O)(=O)c2ccc(Br)cc2)c2ccccc12 [Example 144]
79.1 µM

Identify the reported concentration at 2 h for the following entry. O=C(O)c1cn(S(=O)(=O)c2ccccc2)c2ccccc12 [Example 1]
145 µM

---

# measured_target: human 17βHSD type 5 (Homo sapiens)
# Construct: A full-length cDNA encoding human 17βHSD type 5 used in the pharmacological test
# assay_comment: Measurement of enzyme activity of human 17βHSD type 5 (testosterone production from androstenedione, DELFIA)
# condition_parameters: purified human 17βHSD type 5, androstenedione 300 nM, NADPH 200 μM, pH 6.0, room temperature 2 hours
What IC50 was measured for each of the following?
Give the number; µM is assumed, so skip it.

Identify the reported IC50 for the following entry. O=C(O)c1cn(S(=O)(=O)c2ccc(Br)cc2)c2c1CCCC2
2.2

Identify the reported IC50 for the following entry. Cc1ccc2c(c1)c(C(=O)O)cn2S(=O)(=O)c1ccccc1
0.22

Identify the reported IC50 for the following entry. O=C(O)c1cn(S(=O)(=O)c2ccccc2)c2c(Cl)cccc12
0.3

Identify the reported IC50 for the following entry. O=C(O)c1cn(S(=O)(=O)c2ccccc2)c2c(F)cccc12
2.2

Identify the reported IC50 for the following entry. O=C(O)c1cn(S(=O)(=O)c2ccc(Br)cc2)c2cc3c(cc12)OCO3
2

Identify the reported IC50 for the following entry. O=C(O)c1cn(S(=O)(=O)c2ccc(Br)cc2)c2ccccc12
0.09

Identify the reported IC50 for the following entry. CCc1cccc2c(C(=O)O)cn(S(=O)(=O)c3ccccc3)c12
0.085

These entries and their values trace back to patent US20110071146A1.
